These data points were gathered from ChEMBL document CHEMBL3352071.

Reported Vd is given for each of the following compounds.
- experiment summary: Volume of distribution at steady state in Wistar rat at 1 mg/kg, iv
- Type: ADME, organism-based
- Parameters: dose 1 mg/kg, route intravenous
- particulars: in vivo, read-out: Vdss
measured metric: Vd

                           smiles_structure  observed_measurement
0  COc1cnc2ccc(=O)n(CCN3CCN(c4nc5cc(C#N)c(C)cc5[nH]4)CC3)c2c1             1.54 L/kg
1  COc1cnc2ccc(=O)n(CCN3CCC(c4nc5cc(C#N)c(C)cc5[nH]4)CC3)c2c1             1.01 L/kg

* * *

- experiment summary: AUC (0 to infinity) in Wistar rat at 10 mg/kg, po
- Format: ADME, organism-based
- Set-up: time infinity, dose 10 mg/kg, route oral
- particulars: plasma
measured metric: AUC(0-inf)

>>> df
                           smiles_structure  observed_measurement
0  COc1cnc2ccc(=O)n(CCN3CCN(c4nc5cc(C#N)c(C)cc5[nH]4)CC3)c2c1           160 ng·h/mL
1  COc1cnc2ccc(=O)n(CCN3CCC(c4nc5cc(C#N)c(C)cc5[nH]4)CC3)c2c1            20 ng·h/mL

* * *

Reported clearance is given for each of the following compounds.
- experiment summary: Clearance in Wistar rat at 1 mg/kg, iv
- Assay type: ADME, organism-based
- Parameters: dose 1 mg/kg, route intravenous
- particulars: in vivo
measured metric: clearance (L/h/kg)

>>> df
                           smiles_structure  measured_metric  observed_measurement
0  COc1cnc2ccc(=O)n(CCN3CCN(c4nc5cc(C#N)c(C)cc5[nH]4)CC3)c2c1        clearance                  1.93
1  COc1cnc2ccc(=O)n(CCN3CCC(c4nc5cc(C#N)c(C)cc5[nH]4)CC3)c2c1        clearance                  2.13

* * *

- experiment summary: Solubility of the compound
- Format: physicochemical
measured metric: solubility (µM)

In [3]: df
Out[3]:
                           smiles_structure  measured_metric  observed_measurement
0  COc1cnc2ccc(=O)n(CCN3CCC(c4nc5cc(C#N)c(C)cc5[nH]4)CC3)c2c1       solubility                   2.1
1  COc1cnc2ccc(=O)n(CCN3CCN(c4nc5cc(C#N)c(C)cc5[nH]4)CC3)c2c1       solubility                     3

* * *

- experiment summary: Inhibition of Mycobacterium tuberculosis H37Rv DNA gyrase A2B2 holoenzyme supercoiling activity using relaxed pBR322 substrate incubated for 90 mins by ethidium bromide staining based gel electrophoresis method
pIC50: −log10 of the molar value.
Reported pIC50 is given for each of the following compounds.
measured metric: pIC50

                           smiles_structure  observed_measurement
0  COc1cnc2ccc(=O)n(CCN3CCC(c4nc5cc(Cl)c(F)cc5[nH]4)CC3)c2c1                  5.70
1  O=c1ccc2ncc(F)cc2n1CCN1CCC(NCc2ccc(C(F)(F)F)nc2)CC1                  6.60
2  COc1cnc2ccc(=O)n(CCN3CCC(c4nc5cc(C#N)c(C)cc5[nH]4)CC3)c2c1                  5.37

* * *

- experiment summary: Permeability from basolateral to apical side in human Caco2 cells
- Type: ADME, cell-based
- particulars: Caco-2, read-out: permeability
Reported Papp B→A is given for each of the following compounds.
measured metric: Papp B→A (×10⁻⁶ cm/s)

>>> print(df.to_string())
                           smiles_structure  observed_measurement
0  COc1cnc2ccc(=O)n(CCN3CCC(c4nc5cc(C#N)c(C)cc5[nH]4)CC3)c2c1                  28.1
1  COc1cnc2ccc(=O)n(CCN3CCN(c4nc5cc(C#N)c(C)cc5[nH]4)CC3)c2c1                  24.1

* * *

- experiment summary: Inhibition of Mycobacterium tuberculosis H37Rv DNA gyrase A2B2 holoenzyme supercoiling activity using relaxed pBR322 substrate incubated for 90 mins by ethidium bromide staining based gel electrophoresis method
pIC50: −log10 of the molar value.
Reported pIC50 is given for each of the following compounds.
measured metric: pIC50

                                   compound  measured_metric  operator  observed_measurement
0  COc1cnc2ccc(=O)n(CCN3CCC(C4C(=O)Nc5ccc(Cl)cc54)CC3)c2c1 (stereo not given)            pIC50         <                  4.30
1  COc1cnc2ccc(=O)n(CCN3CCC(c4c[nH]c5ccc(C#N)cc45)CC3)c2c1            pIC50         <                  4.30
2  NS(=O)(=O)c1ccc(Oc2cnc3ccc(=O)n(CCN4CCC(c5nc6cc(C(F)(F)F)ccc6[nH]5)CC4)c3c2)cc1            pIC50         =                  5.72
3  COc1cnc2ccc(=O)n(CCN3CCC(c4c[nH]c5cc(C(F)(F)F)ccc45)CC3)c2c1            pIC50         <                  4.30
4  N#Cc1ccc2ccc(=O)n(CCN3CCC(NCc4ccc5c(n4)NC(=O)CO5)CC3)c2c1            pIC50         =                  6.96

* * *

pIC50: −log10 of the molar value.
So I've got pIC50 readings for UniProtKB P33261, take a look.
Sequence (P33261 whole entry): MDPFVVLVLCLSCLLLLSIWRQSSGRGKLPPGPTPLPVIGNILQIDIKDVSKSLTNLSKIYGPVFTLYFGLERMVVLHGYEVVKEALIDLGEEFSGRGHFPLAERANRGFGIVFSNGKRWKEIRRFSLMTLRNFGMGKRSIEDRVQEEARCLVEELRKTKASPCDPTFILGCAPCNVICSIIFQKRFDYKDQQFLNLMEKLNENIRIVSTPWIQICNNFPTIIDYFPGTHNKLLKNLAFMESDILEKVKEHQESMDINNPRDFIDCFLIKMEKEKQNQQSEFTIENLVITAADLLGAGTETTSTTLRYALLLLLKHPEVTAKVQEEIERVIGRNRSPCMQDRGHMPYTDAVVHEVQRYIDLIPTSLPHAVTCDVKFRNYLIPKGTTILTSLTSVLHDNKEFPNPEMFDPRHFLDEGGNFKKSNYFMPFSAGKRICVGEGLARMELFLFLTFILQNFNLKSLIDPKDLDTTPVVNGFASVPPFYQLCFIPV
measured metric: pIC50

                           smiles_structure               tgt  observed_measurement
0  COc1cnc2ccc(=O)n(CCN3CCN(c4nc5cc(C#N)c(C)cc5[nH]4)CC3)c2c1  UniProtKB P33261                < 4.52
1  COc1cnc2ccc(=O)n(CCN3CCC(c4nc5cc(C#N)c(C)cc5[nH]4)CC3)c2c1  UniProtKB P33261                < 4.52

* * *

- experiment summary: Permeability from apical to basolateral side in human Caco2 cells
- Type: ADME, cell-based
- particulars: Caco-2, read-out: permeability
measured metric: Papp A→B (×10⁻⁶ cm/s)

                           smiles_structure  measured_metric        unit  observed_measurement
0  COc1cnc2ccc(=O)n(CCN3CCN(c4nc5cc(C#N)c(C)cc5[nH]4)CC3)c2c1         Papp A→B  ×10⁻⁶ cm/s                   1.5
1  COc1cnc2ccc(=O)n(CCN3CCC(c4nc5cc(C#N)c(C)cc5[nH]4)CC3)c2c1         Papp A→B  ×10⁻⁶ cm/s                   0.4

* * *

Reported IC50 is given for each of the following compounds.
- tgt: Cytochrome P450 1A2 (Homo sapiens)
- Sequence (P05177 whole entry): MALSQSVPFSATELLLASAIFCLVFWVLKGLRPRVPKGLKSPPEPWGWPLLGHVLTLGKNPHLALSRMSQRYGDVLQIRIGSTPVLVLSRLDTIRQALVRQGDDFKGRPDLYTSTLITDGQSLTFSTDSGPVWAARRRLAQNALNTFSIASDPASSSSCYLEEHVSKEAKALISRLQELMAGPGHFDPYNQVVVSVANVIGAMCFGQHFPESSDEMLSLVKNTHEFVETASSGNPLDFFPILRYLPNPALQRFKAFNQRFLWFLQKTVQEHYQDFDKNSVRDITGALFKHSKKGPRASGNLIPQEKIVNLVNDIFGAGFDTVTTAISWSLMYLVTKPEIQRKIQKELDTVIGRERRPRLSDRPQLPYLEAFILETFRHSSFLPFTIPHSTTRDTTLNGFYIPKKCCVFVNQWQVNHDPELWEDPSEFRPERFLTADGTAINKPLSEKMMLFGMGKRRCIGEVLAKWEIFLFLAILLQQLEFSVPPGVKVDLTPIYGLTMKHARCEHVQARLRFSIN
measured metric: IC50

                           smiles_structure  observed_measurement
0  COc1cnc2ccc(=O)n(CCN3CCN(c4nc5cc(C#N)c(C)cc5[nH]4)CC3)c2c1               > 30 µM
1  COc1cnc2ccc(=O)n(CCN3CCC(c4nc5cc(C#N)c(C)cc5[nH]4)CC3)c2c1               > 30 µM

* * *

pIC50: −log10 of the molar value.
So I've got pIC50 readings for Voltage-gated inwardly rectifying potassium channel KCNH2 (Homo sapiens, UniProt Q12809), take a look.
measured metric: pIC50

>>> print(df.to_string())
                           smiles_structure  operator  observed_measurement
0  COc1cnc2ccc(=O)n(CCN3CCN(c4nc5ccccc5[nH]4)CC3)c2c1         =                  5.15
1  NS(=O)(=O)c1ccc(Oc2cnc3ccc(=O)n(CCN4CCC(c5nc6cc(C(F)(F)F)ccc6[nH]5)CC4)c3c2)cc1         <                  4.48
2  COc1cnc2ccc(=O)n(CCN3CCN(c4nc5cc(C#N)c(C)cc5[nH]4)CC3)c2c1         <                  4.48
3  COc1cnc2ccc(=O)n(CCN3CCC(c4c[nH]c5ccc(C#N)cc45)CC3)c2c1         =                  5.70
4  Cc1cc2[nH]c(C3CCN(CCn4c(=O)ccc5ncc(F)cc54)CC3)nc2cc1Cl         =                  5.92
